target: Tyrosyl-tRNA synthetase, putative (Trypanosoma cruzi (strain CL Brener)); assay: Trypanosoma cruzi tyrosyl tRNA synthetase (TcYRS) SOP; assay type: functional; design: scale not given: direction of the effect not stated beside the values; details: 30 µM

MOLECULE	Percent Effect [%]
COC(=O)C1CCN(C(=O)c2ccc(N(C)S(C)(=O)=O)c(C)c2)CC1	2.44
Cc1csc(Nc2nccnc2C2CCCN2C(=O)C(C)C)n1 (stereo not drawn)	10
c1ccc(-n2ncc(CN3CCCC3Cn3cccn3)n2)cc1 (stereo not drawn)	-2.35
O=C(c1cc2cc(F)ccc2[nH]1)N1CCC(Nc2cccnn2)CC1	-2.35
COc1ccc(COCC(O)CNC(=O)c2cccnc2)cc1 (stereo not drawn)	0
COc1cccc(S(=O)(=O)CCN2CCCCC2)c1	8.64
CN1CCOC(CNCc2coc(-c3cccs3)n2)C1 (stereo not drawn)	21.5
CC(NC(=O)CCCOc1ccccc1Cl)c1ccncc1 (stereo not drawn)	2.5
Cc1nc(C2CCCN(C(=O)CO)C2)cc(N2CCOCC2)n1 (stereo not drawn)	14.6
CCc1n[nH]c(C2CN(C(=O)CCc3cccs3)CCO2)n1 (stereo not drawn)	12.7
c1ccc(-n2ccnc2)c(CNCC2CNc3ccnn3C2)c1 (stereo not drawn)	21.9
COc1ccccc1CC(=O)N1CC[C@@]2(CCCO2)[C@@H](OC)C1	5
CCSCC(C)NCc1nncn1C1CCCCC1 (stereo not drawn)	20.5
CS(=O)(=O)c1ccccc1C(=O)NCCCN1CCc2ccccc2C1	15.4
CN(C)C[C@H]1OC[C@@H]2CCN(S(=O)(=O)c3ccccc3)C[C@@H]21	-5.13
O=C(CCn1cccn1)N1CCN(CC(F)F)CC1	25.6
Cc1ccc(NC(=O)N2CCC(NC(=O)c3ccc(C)o3)CC2)cc1	23.5
N#Cc1ccccc1N1CCCN(C(=O)CCc2nccs2)CC1	11.4
CCOc1cccc2c1OCC(C(=O)NS(=O)(=O)Cc1ccccc1)=C2	-6.17
Cc1nc2c(c(C)c1CC(=O)Nc1cccc(C#N)c1)c(=O)[nH]n2C	2.35
Cc1cccnc1CN(C)CC1(O)CCCN(CC2CCCCC2)C1=O (stereo not drawn)	17.1
CN(Cc1ccc2c(c1)OCCO2)C(=O)Cn1cccnc1=O	12.8
COCCN1CCN(Cc2cccc(C(=O)N(C)C)c2)CC1C (stereo not drawn)	7.69
COc1ncccc1C(=O)N1CCn2c(COCC3CC3)cnc2C1C (stereo not drawn)	7.69
CC(CNC(=O)N1CCN(CC(F)F)CC1)Cc1cccs1 (stereo not drawn)	1.22
CC(C)NC(=O)N1CCN(Cc2ccccn2)CC2(CC(=O)N(C)C2)C1 (stereo not drawn)	0
CC(=O)N1CCC2(CCN(C(=O)c3ccc(Cl)c(C(F)(F)F)c3)CC2)C1	7.69
CC(C)C(C(=O)N1CCCN(Cc2cnn(C)c2)CC1)n1cncn1 (stereo not drawn)	-1.24
CN(C)C(C)(C)CNC(=O)C(C)(C)c1ccccc1F	-2.56
O=C(CCCOc1ccccc1Cl)N1CCCC(n2cncn2)C1 (stereo not drawn)	6.02
c1nc(COCC2CC2)c2n1CCCN(CC1CC1)C2	0
CC(C)SCC(=O)N1CCc2c(nc(N(C)C)nc2N(C)C)C1	8.64
Cc1ccc(CC(=O)N2CCCCC2c2nc(C)cs2)cn1 (stereo not drawn)	7.59
CN(C)c1ncc(-c2cc(C(=O)O)n(CC3CC3)c2)cn1	-3.66
O=C(O)c1ccc(F)c(S(=O)(=O)Nc2c(F)cccc2-n2cccn2)c1	8.64
CCCc1nc(C)c(C(=O)NS(=O)(=O)c2ccc(C#N)cc2)s1	9.76
Cc1nccc(-c2cccc(NCC(=O)N3CCCCCCC3)c2)n1	-1.24
CN(C)CC1CN(Cc2csc(C3CCCC3)n2)CCO1 (stereo not drawn)	16.1
CN(CC1CC1)C(=O)CN(Cc1cccc(O)c1)C1CCC(O)CC1 (stereo not drawn)	1.24
CCC(NC(=O)CC(F)(F)F)c1ccccc1OCC(=O)N1CCCC1 (stereo not drawn)	20.5
O=C(Cn1cccnc1=O)NCCc1ccc2c(c1)OCCO2	7.69
c1nc2c(c(C3CC3)n1)CCN(CC1CCOC1)CC2 (stereo not drawn)	15.4
O=C(NCCNc1ccc(C(F)(F)F)cn1)c1ccc(Br)cc1F	14.1
CN(Cc1ccc2c(c1)OCCO2)C(=O)Cn1ccccc1=O	7.69
Cc1cc(C)n(CC2CCCN2CCCS(N)(=O)=O)n1 (stereo not drawn)	18.1
CCn1cc(N2Cc3nc(N4CCOCC4)ncc3C2=O)cn1	5.13
Cc1ccc(C(=O)N2CCCS2(=O)=O)cc1Cl	0
Cc1cc(CN2CC[C@H]3C[C@H](C(=O)N4CCC(C)CC4)O[C@H]3C2)no1	12.8

====

molecular target: Ubiquitin-activating enzyme e1, putative (Leishmania donovani (strain BPK282A1)); experiment: Leishmania donovani Ubiquitin Activating Enzyme (LdE1); format: functional; set-up: scale not given: direction of the effect not stated beside the values; details: 30 µM
Results with a measured potency or affinity are listed apart.
Rule: Percent Effect of 10% or more gives Y; anything lower gives N.

COMPOUND	CLASS ASSIGNMENT
COc1ccc(C)cc1CSCCn1nc2ccccn2c1=O	Y
CC[C@H](C)[C@H](NC(=O)Cc1csc(-c2cccc(Cl)c2)n1)C(=O)O	N
Cn1cc(CN2CCCC3(CCN(Cc4cccnc4)C3=O)C2)cn1 (configuration not stated)	Y
Cc1nc(C)n(CC2CCCN2Cc2cn3ccsc3n2)n1 (configuration not stated)	Y
CC(C(=O)NCCOc1cccc(Cl)c1)n1cncn1 (configuration not stated)	Y
O=C(NCC(=O)N1CCc2ccccc2C1)c1ccoc1	Y
O=C(c1n[nH]c2c1CCN(Cc1nccs1)C2)N1CCCC1	N
COc1c(C2CCCN2C(=O)c2c[nH]c3ncccc23)c(C)nn1C (configuration not stated)	N
CN(Cc1nnc(-c2ccco2)o1)C1CCCN(c2cccnn2)C1 (configuration not stated)	Y
FC(F)(F)Cn1ccnc1CN1CCOC(Cn2cccn2)C1 (configuration not stated)	N
CC(C)c1csc(C2CCCN(C(=O)Cn3ccccc3=O)C2)n1 (configuration not stated)	N
O=C(CCN1CCCN(c2nccs2)CC1)NCC1CCCCC1	N

====

target: Protein translocase subunit SecA (Escherichia coli (strain K12)); experiment: Assay to Identify E. coli SecA ATPase Inhibitors; format: functional; design: scale not given: direction of the effect not stated beside the values; details: 30 µM
Entries with a potency or affinity are not part of this list.

MOLECULE	Percent Effect, %
CC(C)(C)OC(=O)CNC(=O)CCc1nnc(-c2ccsc2)o1	-5.71
c1cnnc(N2CCCC(NCc3nnc(-c4ccco4)o3)C2)c1 (configuration not stated)	-0.0972
CCc1cc(N2CCSCC2)n2nc(C)c(C)c2n1	-2.37
O=S(=O)(C1CC1)N1CCOCC2(CCN(c3ccccn3)C2)C1 (configuration not stated)	-6.13
CCCn1nc2c(cc1=O)CN(CC(=O)Nc1nnc(C)s1)CC2	-7.9
Cc1cnn(CC2CCCCN2C(=O)c2cc(C(N)=O)cs2)c1 (configuration not stated)	-8.81
Cc1cnn(CC2CCCN2C(=O)c2ccc3nnc(C)n3c2)c1 (configuration not stated)	-1.55
CCc1nnsc1C(=O)NCCn1nc2ccccn2c1=O	-5.54
Cc1nc(N2CCN(C(=O)C(C)(C)C)CC2)cc(-n2cnc(C)c2C)n1	-3.24
CC1c2ncc(CNC(=O)C3CC3)n2CCN1Cc1cnn(C)c1 (configuration not stated)	-0.181
CCN(Cc1ccc2c(c1)OCCO2)S(=O)(=O)N(C)C(C)C	-5.7
O=C(O)c1cc(S(=O)(=O)Nc2ccc(Cl)cc2)cc2c1OCCO2	-4.18
CCn1cc(CN(C)S(=O)(=O)c2cc(Cl)ccc2Cl)cn1	-0.942
O=C1N(Cc2ccc(F)c(F)c2)CCCC12CCN(C1CCSCC1)C2 (configuration not stated)	-4.12
COc1ccc(CNCc2c(C)nn(C)c2N2CCOCC2)cc1	-5.07
COCc1nc(C(=O)NS(=O)(=O)c2cc(F)ccc2F)cs1	-3.64
CC1CCCN(Cc2csc(-c3ncccn3)n2)CC1 (configuration not stated)	-3.33
c1ccc(OCc2ccncc2)c(CNC2CCc3ncnn3C2)c1 (configuration not stated)	1.01
CC(C)(C)c1cn2nc(N3CCOC(Cn4cncn4)C3)sc2n1 (configuration not stated)	-1.88
O=C1C(NCc2nnc3n2CCCC3)CCCN1c1cccc(F)c1 (configuration not stated)	0.699
Cc1cc(C)n(CC2CN(CC(=O)Nc3nncs3)CCO2)n1 (configuration not stated)	-3.97
CCNc1cc2c(nn1)CCN(C(=O)c1ccc(CNC(C)=O)o1)C2	-4.81
CN(C)CC1CN(Cc2ccsc2)Cc2nccn2C1 (configuration not stated)	-3.4
O=C(O)CCc1cc2n(n1)CCCN(C(=O)c1ccc3cc[nH]c3c1)C2	-2.97
Cc1cnn(CC2CCCCN2CC(=O)Nc2c(C)n[nH]c2C)c1 (configuration not stated)	-3.93
CS(=O)(=O)CC(=O)N1C[C@@H]2COC[C@]2(c2nnc(C3CC3)o2)C1	-5.11
Cc1cc(CNc2cc(Cl)ccc2Cl)no1	-0.772
O[C@]1(c2ccccn2)CC[C@@H]2CN(Cc3cccc4ncccc34)C[C@@H]21	-4.41
Cc1ccccc1CSc1nc(N)cc(N2CCOC(C(N)=O)C2)n1 (configuration not stated)	-5.78
COc1ccc(CC(=O)N2CCCC(n3cc(C)cn3)C2)cc1F (configuration not stated)	-2.21
O=C(Cc1ccccc1)N1CCC2(CC(=O)N(c3ccsc3)C2)C1 (configuration not stated)	-0.7
Cc1cc(C)n(Cc2ccc(C(=O)NCCN3CCOCC3)cc2)n1	-1.98
O=C(CCNc1ncccn1)N1CCCC(n2ccnc2)C1 (configuration not stated)	-7.87
O=C(Cc1ccc2c(c1)OCCO2)NC1CCN(CC(F)F)CC1	-6.42
Cc1ccc(CN2CCCC3(CCN(S(=O)(=O)N(C)C)C3)C2)o1 (configuration not stated)	-4.24
Cc1ccc(-c2nc(CN3CCCC3Cn3cc(C)cn3)no2)cc1 (configuration not stated)	-2.04
Cc1cc(CC(=O)NCc2ccnc(OCC(F)(F)F)c2)no1	-9.52
Cc1csc2ncc(-c3ccnc(N4CCN(C)CC4)n3)c(=O)n12	-1.31
CCn1ccnc1CN1CCCN(C(=O)Cn2nc(C)cc2C)CC1	-2.55
CC(C)CCn1[nH]c(CNc2ccccc2)nc1=O	-2.4
O=C(NCC1CCOC1)c1ccc(OCC(F)(F)F)nc1 (configuration not stated)	-1.32
CCOc1ccc(Cl)c(C(=O)N2CCN(C(=O)c3ccoc3C)CC2)n1	-5.76
COc1ccc(-c2cnc(CN3CCn4c(C)nnc4C3)o2)cc1	-8.18
CCc1nccn1C1CCCN(C(=O)c2ccc3nncn3c2)C1 (configuration not stated)	-5.07
COCCOCc1cccc(NC(=O)N2CCCC2c2ccncc2)c1 (configuration not stated)	-2.97
Cc1nc(NC(=O)CN2CCc3c(nc(C(C)C)n3C)C2)sc1C	-3.02
CCCC(C)C(=O)NCc1cn2cc(Br)ccc2n1 (configuration not stated)	-3.66
